metric: melting point

> print(dat)
                                   compound         metric   result.value
1   COc1cc(-c2ncnc(OC)c2C=O)c(F)cc1Cl [L-1]  melting point  161 to 163 °C
2  COc1ncnc(-c2cc(NS(C)(=O)=O)c(Cl)cc2Cl)c1C#N [K-20]  melting point  160 to 162 °C

Shift focus to the following entry.
Query: // returns reported melting point for input CCS(=O)(=O)Nc1cc(-c2ncnc(NOC)c2Cl)c(F)cc1C#N [H-27]
Response: 188 to 189 °C
